These entries and their values trace back to patent US20220119513A1.

Parameter: pSmad-3, IC50. Scope: all listed entries.
Target: T1, TGFβ3 (R&D Systems) (Homo sapiens (Human), UniProt P10600 301-412, Active TGFβ3 is a disulfide-linked homodimer of this chain; one copy is given.)
T1 sequence: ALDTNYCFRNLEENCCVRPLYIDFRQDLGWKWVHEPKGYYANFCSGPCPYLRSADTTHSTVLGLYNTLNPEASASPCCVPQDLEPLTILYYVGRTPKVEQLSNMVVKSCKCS
Assay: cell-based or functional assay
READOUT KIND: pSmad-3, IC50

>>> value_observed("affinity matured HcLb 239 (antibody, V domains shown, full IgG; also called canHcLb/55SW/100DY/31/TK + canHcLb/237ND/242TS) VH: EVQLVQSGAEVKKPGASVKVSCKTSGYTFIKYWMNWVRQAPGAGLDWMGQIFPAWGSTNYNEMFEGRVTLTADTSTSTAYMELSSLRAGDIAVYYCARGYGNYALDAMDYWGQGTLVTVSS VL: DIVMTQTPPSLSVSPRETASISCRASESVDSYGNSFMHWYLQKPGQSPQLLIYLASNLESGVSDRFSGSGSGTDFTLRISRVEANDTGVYYCQQNDEDPLSFGQGTK")
"1.54 nM"
>>> value_observed("affinity matured HcLb 260 (antibody, V domains shown, full IgG; constant regions not restated) VH: SEVQLVQSGAEVKKPGASVKVSCKTSGYTFITYWMNWVRQAPGAGLDWMGQIFPAWGVTNYNEMFEGRVTLTADTSTSTAYMELSSLRAGDIAVYYCARGYGNYALDAMDYWGQGTLVTVSS VL: DIVMTQTPPSLSVSPRETASISCRASESVDSYGNSFMHWYLQKPGQSPQLLIYLASNLESGVSDRFSGSGSGTDFTLRISRVEANDTGVYYCQQNNEDPLTFGQ")
"1.24 nM"
>>> value_observed("affinity matured HcLb 259 (antibody, V domains shown, full IgG; constant regions not restated) VH: EVQLVQSGAEVKKPGASVKVSCKTSGYTFITYWMNWVRQAPGAGLDWMGQIFPAWGMTNYNEMFEGRVTLTADTSTSTAYMELSSLRAGDIAVYYCARGYGNYALDAMDYWGQGTLVTVSS VL: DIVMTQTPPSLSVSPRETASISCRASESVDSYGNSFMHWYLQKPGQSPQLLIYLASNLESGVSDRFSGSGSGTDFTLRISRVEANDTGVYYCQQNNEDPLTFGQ")
"1.48 nM"
>>> value_observed("affinity matured HcLb 233 (antibody, V domains shown, full IgG; also called canHcLb/55SW/100DY/57/SM + canHcLb/237ND/242TS) VH: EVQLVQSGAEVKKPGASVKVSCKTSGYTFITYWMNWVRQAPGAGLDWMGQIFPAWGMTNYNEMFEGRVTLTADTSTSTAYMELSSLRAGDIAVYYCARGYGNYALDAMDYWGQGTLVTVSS VL: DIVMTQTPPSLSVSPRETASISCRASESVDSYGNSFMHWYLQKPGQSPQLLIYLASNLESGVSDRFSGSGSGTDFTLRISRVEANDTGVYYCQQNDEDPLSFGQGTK")
"1.33 nM"
>>> value_observed("affinity matured HcLb 261 (antibody, V domains shown, full IgG; constant regions not restated) VH: EVQLVQSGAEVKKPGASVKVSCKTSGYTFMTYWMNWVRQAPGAGLDWMGQIFPAWGSTNYNEMFEGRVTLTADTSTSTAYMELSSLRAGDIAVYYCARGYGNYALDAMDYWGQGTLVTVSS VL: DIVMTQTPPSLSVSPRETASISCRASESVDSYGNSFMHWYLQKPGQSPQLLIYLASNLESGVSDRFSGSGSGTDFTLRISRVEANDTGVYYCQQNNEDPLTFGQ")
"1.2 nM"
>>> value_observed("affinity matured HcLb 27 (antibody, V domains shown) VH: EVQLVQSGAEVKKPGASVKVSCKTSGYTFITYWMNWVRQAPGAGLDWMGQIFPASGSTNYNEMFEGRVTLTADTSTSTAYMELSSLRAGDIAVYYCARGYGNYALDAMDYWGQGTLVTVSS VL: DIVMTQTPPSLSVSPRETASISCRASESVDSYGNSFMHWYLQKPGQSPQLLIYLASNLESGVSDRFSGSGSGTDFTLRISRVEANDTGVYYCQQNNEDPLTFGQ")
"1.7 nM"
